Data origin, for the record: the supplement of paper PMC4862054

Test system: CAL-120
protocolNotes: normalised response (% of control), CellTiter-Glo; higher = more viable cells (100 = DMSO, 0 = benzethonium chloride kill control)
testSettings: incubation time: 72 h
metric: normalised response (%)

{"molecule": "COc1ccc(C2=N[C@@H](c3ccc(Cl)cc3)[C@@H](c3ccc(Cl)cc3)N2C(=O)N2CCNC(=O)C2)c(OC(C)C)c1 [Nutlin-3] (10000 nM)", "experimentalSystem": "CAL-120", "quantityUnit": "%", "observedValue": 100}
{"molecule": "Nc1nccc(-c2c(-c3ccc(F)cc3)ncn2C2CCCCC2)n1 (10000 nM)", "experimentalSystem": "CAL-120", "quantityUnit": "%", "observedValue": 107}
{"molecule": "C#Cc1cccc(Nc2ncnc3cc(OC)c(OCCCCCCC(=O)NO)cc23)c1 [CUDC-101] (10000 nM)", "experimentalSystem": "CAL-120", "quantityUnit": "%", "observedValue": 38.6}
